B1: Peroxisome proliferator-activated receptor delta, residues 71 to 145; numbered along this chain, Q03181 (parent)
chain: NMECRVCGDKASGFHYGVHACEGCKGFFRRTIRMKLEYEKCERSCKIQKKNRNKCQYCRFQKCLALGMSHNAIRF

variants of: B1; experiment: abundance fitness (aPCA) (normalised: wild type 0, dead -1); higher = more abundant; growth selection in yeast, the domain comes from the species named; conditions: Homo sapiens
I'd appreciate it if you could supply abundance fitness values for the items below.
A bare number is all that is needed in reply.

**Q:** I am curious: what abundance fitness value has been reported for "C24K" ?
**A:** -0.6

**Q:** Which abundance fitness reading was recorded for the variant "C4Y" ?
**A:** -0.693

**Q:** Consider the variant "T31P" and give its measured abundance fitness.
**A:** -1.16

**Q:** Entry under review: "H70Q" . Reported abundance fitness?
**A:** 0.108

**Q:** Returns the measured abundance fitness for the input variant. Input: "K35L"
**A:** -0.495

**Q:** Could you tell me which abundance fitness is on file for "E3L" ?
**A:** -0.106

**Q:** Would you mind telling me what abundance fitness value was observed for "N1V" ?
**A:** -0.141

**Q:** Query (variant): "F60C" ; field requested: abundance fitness
**A:** -0.84

**Q:** GET /values?readout=abundance fitness&item= "H19F"
**A:** 0.247

**Q:** Fill in: abundance fitness of "G17I" is ___
**A:** -0.813

**Q:** Entry under review: "Y16G" . Reported abundance fitness?
**A:** -0.013

**Q:** Suppose we examine the variant "K50Y" ; what abundance fitness value has been reported?
**A:** -0.295

**Q:** // abundance fitness lookup, key: "H19G"
**A:** -0.205

**Q:** What value of measured abundance fitness is listed for "R29D" ?
**A:** 0.131

**Q:** Name the reported abundance fitness value associated with the variant "K62C"
**A:** -0.543

**Q:** Can you look up the measured abundance fitness of "C55R" for me?
**A:** -0.868

**Q:** Recorded abundance fitness of "K10C" , please.
**A:** -0.336

**Q:** Any idea what its abundance fitness is? The variant is "K62A"
**A:** -0.056

**Q:** GET /values?readout=abundance fitness&item= "C4G"
**A:** -0.911

**Q:** Tell me the measured abundance fitness of "I47V" , please.
**A:** 0.004

**Q:** Data request, read-out abundance fitness, for "S69Y"
**A:** -0.213

**Q:** Recorded abundance fitness for "M68T" , please?
**A:** -0.769

**Q:** If you can, please state the reported abundance fitness value of "L64S" .
**A:** -0.648

**Q:** Endpoint output: abundance fitness of "K25F" . Value?
**A:** -0.108

**Q:** Please give the measured abundance fitness for this variant: "Y16K"
**A:** -0.356
